# TEST_SYSTEM: eTau1a (amino acids 2-166 of fetal tau) (Homo sapiens (Human), UniProt P10636 2-541)
# Sequence (P10636 other isoform, or with tags, fused parts or gaps): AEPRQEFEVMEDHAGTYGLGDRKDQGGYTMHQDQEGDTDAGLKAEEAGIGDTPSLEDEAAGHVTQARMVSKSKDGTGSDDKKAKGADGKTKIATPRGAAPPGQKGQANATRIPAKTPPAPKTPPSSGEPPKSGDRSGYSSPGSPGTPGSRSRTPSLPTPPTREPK
# PROCEDURE_TEXT: relative binding affinity, method not named (Table 4)
REPORTED_PROPERTY: Kd (nM)

>  <BINDER>
VH4/Vk1 (antibody, V domains shown, member of the group m7; also called humanized IPN002 variant VH4/Vk1) VH: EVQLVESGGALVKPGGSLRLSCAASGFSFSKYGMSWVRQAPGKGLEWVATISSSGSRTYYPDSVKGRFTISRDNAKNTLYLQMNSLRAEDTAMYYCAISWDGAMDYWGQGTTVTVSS VL: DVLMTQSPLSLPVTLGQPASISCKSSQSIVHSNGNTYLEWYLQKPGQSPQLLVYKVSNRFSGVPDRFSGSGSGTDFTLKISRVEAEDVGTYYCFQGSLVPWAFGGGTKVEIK

>  <REPORTED_PROPERTY>
Kd

>  <UNITS_TEXT>
nM

>  <TEST_RESULT>
0.198

$$$$
>  <BINDER>
VH1/Vk4 (antibody, V domains shown, member of the group m7; also called humanized IPN002 variant VH1/Vk4) VH: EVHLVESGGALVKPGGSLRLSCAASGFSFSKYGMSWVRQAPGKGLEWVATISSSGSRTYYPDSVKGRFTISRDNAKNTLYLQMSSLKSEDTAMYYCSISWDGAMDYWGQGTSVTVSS VL: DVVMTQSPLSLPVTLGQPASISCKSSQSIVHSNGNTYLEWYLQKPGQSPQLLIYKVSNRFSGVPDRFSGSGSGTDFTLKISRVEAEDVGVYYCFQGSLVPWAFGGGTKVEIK

>  <REPORTED_PROPERTY>
Kd

>  <UNITS_TEXT>
nM

>  <TEST_RESULT>
0.252

$$$$
>  <BINDER>
VH3/Vk1 (antibody, V domains shown, member of the group m7; also called humanized IPN002 variant VH3/Vk1) VH: EVQLVESGGALVKPGGSLRLSCAASGFSFSKYGMSWVRQAPGKGLEWVATISSSGSRTYYPDSVKGRFTISRDNAKNTLYLQMNSLRAEDTAMYYCSISWDGAMDYWGQGTTVTVSS VL: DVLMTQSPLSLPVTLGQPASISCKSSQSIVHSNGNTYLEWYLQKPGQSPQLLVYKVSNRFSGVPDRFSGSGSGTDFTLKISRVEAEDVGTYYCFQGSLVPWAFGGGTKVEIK

>  <REPORTED_PROPERTY>
Kd

>  <UNITS_TEXT>
nM

>  <TEST_RESULT>
0.241

$$$$
>  <BINDER>
humanized IPN002 variant VH2/Vk1 (antibody, V domains shown) VH: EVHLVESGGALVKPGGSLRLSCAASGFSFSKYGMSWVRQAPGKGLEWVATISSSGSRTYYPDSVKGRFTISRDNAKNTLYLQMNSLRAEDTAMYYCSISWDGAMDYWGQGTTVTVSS VL: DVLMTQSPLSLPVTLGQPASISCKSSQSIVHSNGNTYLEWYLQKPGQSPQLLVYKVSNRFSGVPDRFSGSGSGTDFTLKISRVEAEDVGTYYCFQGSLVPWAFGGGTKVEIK

>  <REPORTED_PROPERTY>
Kd

>  <UNITS_TEXT>
nM

>  <TEST_RESULT>
0.281

$$$$
>  <BINDER>
humanized IPN002 variant VH2/Vk2 (antibody, V domains shown) VH: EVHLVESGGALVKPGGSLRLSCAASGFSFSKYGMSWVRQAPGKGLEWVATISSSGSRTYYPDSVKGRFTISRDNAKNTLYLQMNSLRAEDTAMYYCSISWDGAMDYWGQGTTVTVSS VL: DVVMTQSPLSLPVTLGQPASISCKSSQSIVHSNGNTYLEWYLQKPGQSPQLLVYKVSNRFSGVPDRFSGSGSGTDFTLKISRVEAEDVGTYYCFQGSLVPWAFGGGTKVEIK

>  <REPORTED_PROPERTY>
Kd

>  <UNITS_TEXT>
nM

>  <TEST_RESULT>
0.327

$$$$
>  <BINDER>
VH1/Vk3 (antibody, V domains shown, member of the group m7; also called humanized IPN002 variant VH1/Vk3) VH: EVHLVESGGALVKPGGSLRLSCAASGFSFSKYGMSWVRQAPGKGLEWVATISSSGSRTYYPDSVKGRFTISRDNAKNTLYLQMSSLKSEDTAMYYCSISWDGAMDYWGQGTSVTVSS VL: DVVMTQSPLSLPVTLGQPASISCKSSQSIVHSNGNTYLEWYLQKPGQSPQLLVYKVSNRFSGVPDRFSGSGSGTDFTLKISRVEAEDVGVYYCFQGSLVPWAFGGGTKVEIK

>  <REPORTED_PROPERTY>
Kd

>  <UNITS_TEXT>
nM

>  <TEST_RESULT>
0.291

$$$$
>  <BINDER>
VH3/Vk2 (antibody, V domains shown, member of the group m7; also called humanized IPN002 variant VH3/Vk2) VH: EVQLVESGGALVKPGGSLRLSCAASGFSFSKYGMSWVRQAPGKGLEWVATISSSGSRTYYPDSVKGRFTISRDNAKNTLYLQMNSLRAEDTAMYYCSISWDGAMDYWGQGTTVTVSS VL: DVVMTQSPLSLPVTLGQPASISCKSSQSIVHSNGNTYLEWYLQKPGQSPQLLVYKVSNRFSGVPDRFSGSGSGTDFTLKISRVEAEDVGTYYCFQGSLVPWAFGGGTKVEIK

>  <REPORTED_PROPERTY>
Kd

>  <UNITS_TEXT>
nM

>  <TEST_RESULT>
0.282

$$$$
>  <BINDER>
VH3/Vk3 (antibody, V domains shown, member of the group m7; also called humanized IPN002 variant VH3/Vk3) VH: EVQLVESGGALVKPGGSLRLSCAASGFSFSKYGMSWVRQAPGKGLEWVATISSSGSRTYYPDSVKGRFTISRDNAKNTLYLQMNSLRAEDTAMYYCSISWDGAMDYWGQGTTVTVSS VL: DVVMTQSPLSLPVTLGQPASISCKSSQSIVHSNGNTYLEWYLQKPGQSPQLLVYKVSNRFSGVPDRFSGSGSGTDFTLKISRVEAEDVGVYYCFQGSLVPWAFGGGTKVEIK

>  <REPORTED_PROPERTY>
Kd

>  <UNITS_TEXT>
nM

>  <TEST_RESULT>
0.22

$$$$
>  <BINDER>
VH2/Vk4 (antibody, V domains shown, member of the group m7; also called humanized IPN002 variant VH2/Vk4) VH: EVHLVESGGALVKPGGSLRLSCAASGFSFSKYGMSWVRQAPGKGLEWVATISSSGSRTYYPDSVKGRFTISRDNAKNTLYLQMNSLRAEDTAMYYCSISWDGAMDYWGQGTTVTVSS VL: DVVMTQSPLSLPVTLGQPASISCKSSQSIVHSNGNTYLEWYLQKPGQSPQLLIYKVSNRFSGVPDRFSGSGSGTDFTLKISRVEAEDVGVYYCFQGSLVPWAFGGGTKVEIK

>  <REPORTED_PROPERTY>
Kd

>  <UNITS_TEXT>
nM

>  <TEST_RESULT>
0.343

$$$$
>  <BINDER>
VH4/Vk2 (antibody, V domains shown, member of the group m7; also called humanized IPN002 variant VH4/Vk2) VH: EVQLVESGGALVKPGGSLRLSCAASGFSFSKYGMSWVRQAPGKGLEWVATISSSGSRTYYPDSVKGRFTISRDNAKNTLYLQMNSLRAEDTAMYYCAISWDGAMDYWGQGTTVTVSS VL: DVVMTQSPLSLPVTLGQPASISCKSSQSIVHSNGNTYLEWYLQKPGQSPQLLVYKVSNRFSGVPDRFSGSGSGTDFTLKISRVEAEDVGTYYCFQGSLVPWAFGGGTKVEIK

>  <REPORTED_PROPERTY>
Kd

>  <UNITS_TEXT>
nM

>  <TEST_RESULT>
0.191

$$$$
